B1: Ribonuclease HI, P0A7Y4 (parent)
chain: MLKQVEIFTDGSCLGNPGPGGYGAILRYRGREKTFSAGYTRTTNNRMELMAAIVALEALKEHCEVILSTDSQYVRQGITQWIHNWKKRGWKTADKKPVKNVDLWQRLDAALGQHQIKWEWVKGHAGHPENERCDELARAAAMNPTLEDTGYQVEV

Variants of: B1
Conditions: Escherichia coli (strain K12); pH 5.5; Thermal; CD; Sodium acetate 20 mM; NaCl 0.1 M; reversible: yes; structure 2RN2; whole UniProt chain shown
outcome measure: change of melting temperature, mutant - wild type (higher = more stable) (°C)

[
  {
    "mutation string": "E119V R41C",
    "result number": 4.2
  },
  {
    "mutation string": "A52V",
    "result number": 7.8
  },
  {
    "mutation string": "H62R",
    "result number": 1.3
  },
  {
    "mutation string": "G23A",
    "result number": 1.8
  },
  {
    "mutation string": "H62D",
    "result number": -0.6
  },
  {
    "mutation string": "H62P T40A K122R",
    "result number": 3.1
  },
  {
    "mutation string": "Q80L",
    "result number": 0.8
  },
  {
    "mutation string": "E119V K60R",
    "result number": 2.3
  },
  {
    "mutation string": "H62P",
    "result number": 4.1
  },
  {
    "mutation string": "Q80L K117R",
    "result number": 0.8
  },
  {
    "mutation string": "Q76L",
    "result number": 1.1
  },
  {
    "mutation string": "A24V",
    "result number": 3.2
  },
  {
    "mutation string": "E135K",
    "result number": -0.8
  },
  {
    "mutation string": "E119V",
    "result number": 2.7
  },
  {
    "mutation string": "R41C",
    "result number": 1.6
  }
]
